We begin with a simple list: items and their reported folding stability dG unfold.
assay: folding stability dG unfold from trypsin proteolysis; higher = more stable
Give just the number in kcal/mol; leave the unit off.

ordered.residues	folding stability dG unfold / kcal/mol
SAPVKDKNGKKREVEIHIWVPEEERKKNGTPEQIKWLARERARAAGLKPDRIKEVKIKIMPPEDMPEGFSAG [r14_446_TrROS]	-0.729
SAGGPTAPAGGPLLAPVPVVVPVPVTLTFPNLTPEQAEALAEYFRSLGAEVSYDSATGTLTVRDYRTSAGGS [r16_765_TrMRF]	2.28

Ask: Field request: folding stability dG unfold | item: SAGGSAWMTLEEFIKEAAKNFPPGREKEIWIRHPGYVFKIDIRVTGPGQVKIKIDKIVPFPDGEPISAGGSA [r15_150_TrROS]
Reply: 2.12

Ask: Field request: folding stability dG unfold | item: SAGGSEAEIVSVEFDEETGTISVLVRNSDGSLYRAEIRFERLPDGSLLVTIKVTLPDGKELTFVFPSAGGSA [r2_488_TrROS_Hall]
Reply: 3.94

Ask: Field request: folding stability dG unfold | item: SAGGSAGGESSRLVAVFKFPPSNPNIKTSISFPSLPKSAKISESQAPFGNEYYLVVVIEVPKNSSAGGSAGG [r6_480_TrMRF]
Reply: 2.6

Ask: Field request: folding stability dG unfold | item: SAGGGIVIPVPAETARELLEKLAPDGADVTVESLGSLGGGEVYRATFTDPVFGNTVDIEVLVGPEGGSAGGS [r16_486_TrMRF]
Reply: 0.392

Ask: Field request: folding stability dG unfold | item: SAGGGPLKPILLKVTAKVEKNGKLLEVEAEIAVPLPNKPITLEEIRKILEEALPPDVKIVSLELDPESAGGS [r16_407_TrMRF]
Reply: 2.99

###

assay: folding stability dG unfold from trypsin proteolysis; higher = more stable
endpoint.label: folding stability dG unfold (kJ/mol)
Give just the number in kJ/mol; leave the unit off.

Take a look at these entries with their results.
ordered.residues	unit.annotation	folding stability dG unfold
SAGGSAGGMVIKLPLPNDLYAEIPVYSNSDGIVTARIVLYDPSTEEKVEKPFELPFEELLDLLSSAGGSAGG [r6_858_TrMRF]	kJ/mol	1.37
SAGMKTKTIEETITFTFPPGNPPDLEEIKEKLKSKGVKVLKVEMFEPPGDYYVVTAKVVKELEPSELLSSAG [r5_167_JUSTAS]	kJ/mol	3.91

Ask: Field request: folding stability dG unfold | item: SAGGMLRVTATVGYAPDDPAVELAKKIAEALTPPGMKVRMKAKVTPLADGTYRIDIEVEIRPPGEPGSAGGS [r16_128_TrMRF]
Reply: 11.1

Ask: Field request: folding stability dG unfold | item: SAGGSAGGGPPLPPPVLVLPARVERVFYDPVTGELTVETVDFPVVIRPDGSVYLGDRWIPPELLSAGGSAGG [r6_514_TrMRF]
Reply: 5.16

Ask: Field request: folding stability dG unfold | item: SAGGNNIYVHIQFKPKEQKMERTPDNGKWDMEYKWEIDITIYYPKGMSPEQAERLVNELREIFPGIKSAGGS [r8_306_TrROS]
Reply: 4.69

Ask: Field request: folding stability dG unfold | item: SAGGPTVVLRVRDADGNLVTVTFDEETKRITVTVVRDGKTRTLTVDMTVDEAIARLRDLFPVEVELVPSAGG [r13_141_TrROS_Hall]
Reply: 10.1

Ask: Field request: folding stability dG unfold | item: SAGGSPEEIANEVKEKILKELPPGVKVEVSVEVTPEGATVTVKVPEGKEYTVKVEGDKIVEIKLLKKSAGGS [r8_287_JUSTAS]
Reply: 3.85

Origin of the recorded values: the supplement of paper PMC12764529
